Values of pIC50 reported for PTGER2 (EP2) (Homo sapiens, UniProt P43116) appear below.
Formally, pIC50 is defined as -log10 of the concentration c, with c in mol/L.

Please review the following examples before continuing.
>>> reported_measurement("COc1cc(C(F)F)c(F)cc1CCNc1cc(-c2ccc(C(=O)O)c(SC)c2)ncn1 [Example 187]")
6.89
>>> reported_measurement("COc1cc(-c2cc(NCCc3c(F)cc(Br)cc3F)ncn2)sc1C(=O)O [Example 176]")
7.66
>>> reported_measurement("CCOc1cc(-c2cc(NCCc3cccc(OC)c3OC)ncn2)sc1-c1noc(=O)[nH]1 [Example 119]")
8.00
>>> reported_measurement("CCOc1cc(-c2cc(NCCc3ccc(OC(F)F)cc3OC)ncn2)ccc1C(=O)O [Example 220]")
6.40
>>> reported_measurement("O=c1[nH]c(-c2ccc(-c3cc(NCCc4c(F)cc(Br)cc4F)ncn3)cn2)no1 [Example 289]")
7.10

*Q* Can you look up the measured pIC50 of CCOc1cc(-c2cc(NCCc3c(F)cc(C(F)(F)F)cc3OC)ncn2)ccc1C(=O)O [Example 226] for me?
*A* 6.04

*Q* Can you look up the measured pIC50 of CCOc1cc(Br)ccc1CCNc1cc(-c2cc(OCC)c(-c3noc(=O)[nH]3)s2)ncn1 [Example 85] for me?
*A* 8.10

*Q* Can you look up the measured pIC50 of CCCc1cc(-c2cc(NCCc3c(F)cc(Br)cc3F)ncn2)cc(F)c1C(=O)O [Example 39] for me?
*A* 6.91

* * *

Target entity: UniProt P43116
# TRUE = IC50 below 0.04 µM (exclusive); FALSE = IC50 at/above 0.04 µM

>>> class("CCOc1cc(-c2cc(NCCc3ccccc3C)ncn2)sc1C(=O)O")
"FALSE"

Then there is this molecule:
*Q* Here's an entry: `CCOc1cc(C(F)(F)F)ccc1CCNc1cc(-c2cc(OCC)c(-c3noc(=O)[nH]3)s2)ncn1` . Is its IC50 below 0.04 µM?
*A* TRUE

* * *

Values of pIC50 reported for PTRGER4 (EP4) (Homo sapiens) appear below.
Formally, pIC50 is defined as -log10 of the concentration c, with c in mol/L.

Please review the following examples before continuing.
>>> reported_measurement("CCOc1cc(-c2cc(NCCc3ccc(Br)c(C)c3)ncn2)sc1-c1noc(=O)[nH]1")
8.52
>>> reported_measurement("O=C(O)c1sc(-c2cc(NCCc3c(F)cc(Br)cc3F)ncn2)cc1Cl")
7.00
>>> reported_measurement("CCOc1cc(-c2cc(NCCc3c(C)cc(C)cc3OC)ncn2)ccc1CC(=O)O")
6.44

*Q* Can you look up the measured pIC50 of `CCOc1cc(C(F)(F)F)ccc1CCNc1cc(-c2ccc(C(=O)O)c(SC)c2)ncn1` for me?
*A* 7.30

*Q* Can you look up the measured pIC50 of `CCOc1cc(-c2cc(NCCc3ccc(OC)cc3OC)ncn2)sc1C(=O)O` for me?
*A* 6.87

*Q* Can you look up the measured pIC50 of `Fc1cc(Br)cc(F)c1CCNc1cc(-c2ccc3[nH]ccc3c2)ncn1` for me?
*A* 6.76

*Q* Can you look up the measured pIC50 of `O=C(O)c1ccc(-c2cc(NCCc3c(F)cc(Br)cc3F)ncn2)cc1OC1CCC1` for me?
*A* 6.62

* * *

Target entity: UniProt:P35408
Recorded pIC50, one value per entry.
Formally, pIC50 is defined as -log10 of the concentration c, with c in mol/L.

Please review the following examples before continuing.
>>> reported_measurement("O=C(O)c1ccc(-c2cc(NCCc3c(F)cc(Br)cc3F)ncn2)cc1OC(F)F")
6.47
>>> reported_measurement("CCc1cc(-c2cc(NCCc3c(F)cc(Br)cc3F)ncn2)sc1C(N)=O")
7.43
>>> reported_measurement("CCOc1cc(-c2cc(NCCc3ccc(Br)cc3F)ncn2)sc1-c1noc(=O)[nH]1")
8.52
>>> reported_measurement("CCOc1cc(-c2cc(NCCc3cccc(OC)c3OC)ncn2)sc1-c1noc(=O)[nH]1")
8.30
>>> reported_measurement("CCOc1cc(-c2cc(NCCc3c(F)cc(Br)cc3F)ncn2)sc1-c1noc(=O)[nH]1")
8.70
>>> reported_measurement("CCOc1cc(-c2cc(NCCc3c(F)cc(Br)cc3F)ncn2)ccc1C(N)=O")
6.63

*Q* Give the reported pIC50 for `Cc1cc(-c2cc(NCCc3c(F)cc(Br)cc3F)ncn2)sc1-c1noc(=O)[nH]1` (system: UniProt:P35408).
*A* 8.22

*Q* Give the reported pIC50 for `CCOc1cc(-c2cc(NCCc3c(F)cc(Br)cc3F)ncn2)ccc1-c1cc(O)no1` (system: UniProt:P35408).
*A* 7.25

*Q* Give the reported pIC50 for `CCOc1cc(-c2cc(NCCc3c(C)cccc3OC)ncn2)sc1C(=O)O` (system: UniProt:P35408).
*A* 6.39

*Q* Give the reported pIC50 for `CCOc1cc(-c2cc(NCCc3ccc(OC)cc3F)ncn2)sc1-c1noc(=O)[nH]1` (system: UniProt:P35408).
*A* 8.40

*Q* Give the reported pIC50 for `O=C(O)c1ccc2cc(-c3cc(NCCc4c(F)cc(Br)cc4F)ncn3)[nH]c2c1` (system: UniProt:P35408).
*A* 6.34

*Q* Give the reported pIC50 for `CCCc1cc(-c2cc(NCCc3c(F)cc(Br)cc3F)ncn2)ccc1C(=O)NCCO` (system: UniProt:P35408).
*A* 6.39

* * *

Target entity: PTRGER4 (EP4) (Homo sapiens, UniProt P35408);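 further: assay plate preincubated 15 min at 37 °C, after which PGE2 was added at 20 nM final and incubation continued 120 min at 37 °C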
Sequence (P35408 whole entry): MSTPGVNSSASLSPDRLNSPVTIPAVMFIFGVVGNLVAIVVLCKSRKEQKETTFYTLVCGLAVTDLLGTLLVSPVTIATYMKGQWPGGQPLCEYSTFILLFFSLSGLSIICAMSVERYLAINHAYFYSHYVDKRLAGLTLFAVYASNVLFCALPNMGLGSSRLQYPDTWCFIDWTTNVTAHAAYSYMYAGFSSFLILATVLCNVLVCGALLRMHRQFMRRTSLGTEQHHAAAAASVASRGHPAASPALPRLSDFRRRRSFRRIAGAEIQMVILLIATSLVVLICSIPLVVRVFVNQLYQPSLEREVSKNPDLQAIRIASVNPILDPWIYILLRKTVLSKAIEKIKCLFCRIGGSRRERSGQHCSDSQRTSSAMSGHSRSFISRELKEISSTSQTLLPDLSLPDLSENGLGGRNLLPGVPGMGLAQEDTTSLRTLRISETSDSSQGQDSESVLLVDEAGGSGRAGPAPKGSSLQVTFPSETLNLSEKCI
pIC50: −log10 of the molar value.
Answer 0 (no) if pIC50 is under 7, and 1 (yes) if it is 7 or more.

Use the examples below as a reference point.
>>> class("CCOc1cc(-c2cc(NCCc3c(F)cc(Br)cc3F)ncn2)sc1C(=O)NS(N)(=O)=O")
"1 (yes)"
>>> class("CCOc1cc(-c2cc(NCCc3c(F)cc(OC)cc3F)ncn2)ccc1C(=O)O")
"0 (no)"
>>> class("CCOc1cc(-c2cc(NCCc3ccc(OC)c(O)c3)ncn2)sc1-c1noc(=O)[nH]1")
"1 (yes)"
>>> class("CCOc1cc(-c2cc(NCCc3c(F)cc(Br)cc3F)ncn2)ccc1OCCC(=O)O")
"1 (yes)"
>>> class("O=c1[nH]c(-c2ccc(-c3cc(NCCc4c(F)cc(Br)cc4F)ncn3)s2)no1")
"1 (yes)"
>>> class("CCOc1cc(-c2cc(NCCc3c(F)cc(Br)cc3F)nc(C)n2)sc1-c1noc(=O)[nH]1")
"1 (yes)"
>>> class("CCOc1cc(-c2cc(NCCc3c(F)cc(C(F)(F)F)cc3OC)ncn2)ccc1C(=O)O")
"0 (no)"
>>> class("CCOc1c(C(N)=O)sc(-c2cc(NCCc3c(F)cc(Br)cc3F)ncn2)c1Cl")
"1 (yes)"

*Q* Decide: pIC50 of `COc1cc(SC)ccc1CCNc1cc(-c2ccc(C(=O)O)c(SC)c2)ncn1` >= 7?
*A* 0 (no)

*Q* Decide: pIC50 of `CC(C)Cc1cc(-c2cc(NCCc3c(F)cc(Br)cc3F)ncn2)ccc1CC(=O)O` >= 7?
*A* 0 (no)

*Q* Decide: pIC50 of `CCCc1cc(-c2cc(NCCc3c(F)cc(Br)cc3F)ncn2)ccc1C(=O)NCCOC` >= 7?
*A* 0 (no)

*Q* Decide: pIC50 of `Cc1ccc(CCNc2cc(-c3cc(C(F)(F)F)c(C(=O)O)s3)ncn2)c(C)c1` >= 7?
*A* 0 (no)

*Q* Decide: pIC50 of `CCOc1cc(-c2cc(NCCc3cc(Br)ccc3OC)ncn2)sc1-c1noc(=O)[nH]1` >= 7?
*A* 1 (yes)

*Q* Decide: pIC50 of `CCOc1cc(-c2cc(NCCc3ccc(Br)cc3F)ncn2)ccc1C(=O)O` >= 7?
*A* 0 (no)

*Q* Decide: pIC50 of `CCOc1cc(-c2cc(NCCc3c(F)cc(Br)cc3F)ncn2)ccc1C(=O)NCC(C)(C)O` >= 7?
*A* 0 (no)

*Q* Decide: pIC50 of `COc1cc(C)c(C)cc1CCNc1cc(-c2ccc(C(=O)O)c(SC)c2)ncn1` >= 7?
*A* 0 (no)

* * *

Values of pIC50 reported for PTRGER4 (EP4) (Homo sapiens, UniProt P35408) appear below.
Formally, pIC50 is defined as -log10 of the concentration c, with c in mol/L.

>>> reported_measurement("CCOc1cc(-c2cc(NCCc3ccc(Br)cc3)nc(C)n2)sc1-c1noc(=O)[nH]1")
7.24
>>> reported_measurement("CCOc1ccccc1CCNc1cc(-c2cc(OCC)c(-c3noc(=O)[nH]3)s2)ncn1")
7.04
>>> reported_measurement("CCOc1cc(-c2cc(NCCc3c(F)cc(Br)cc3F)ncn2)ccc1-c1nnn[nH]1")
7.22
>>> reported_measurement("CCOc1cc(-c2cc(NCCc3cccc(C(F)(F)F)c3)ncn2)sc1C(=O)O")
6.44
>>> reported_measurement("CCOc1cc(-c2cc(NCCc3c(F)cc(Br)cc3F)ncn2)ccc1Cc1noc(=O)[nH]1")
7.08
>>> reported_measurement("O=CNc1ccc(-c2cc(NCCc3c(F)cc(Br)cc3F)ncn2)cc1")
6.36

*Q* Can you look up the measured pIC50 of `CCCc1cc(-c2cc(NCCc3ccc(C(F)(F)F)cc3OC)ncn2)ccc1C(=O)O` for me?
*A* 6.31

*Q* Can you look up the measured pIC50 of `CCOc1cc(-c2cc(NCCc3ccccc3C)ncn2)sc1C(=O)O` for me?
*A* 6.00

*Q* Can you look up the measured pIC50 of `O=C1Cc2cc(-c3cc(NCCc4c(F)cc(Br)cc4F)ncn3)ccc2N1` for me?
*A* 6.15

*Q* Can you look up the measured pIC50 of `CC(C)Oc1cc(-c2cc(NCCc3c(F)cc(Br)cc3F)ncn2)ccc1C(=O)O` for me?
*A* 6.08

*Q* Can you look up the measured pIC50 of `CCCOc1cc(-c2cc(NCCc3c(F)cc(Br)cc3F)ncn2)ccc1C(=O)O` for me?
*A* 6.16

*Q* Can you look up the measured pIC50 of `O=c1c(O)c(-c2ccc(-c3cc(NCCc4c(F)cc(Br)cc4F)ncn3)cc2)c1=O` for me?
*A* 7.21
